- experimental_system: Human αvβ3 (Homo sapiens, UniProt P05106+P06756)
- Construct: purchased Chemicon International Inc., Temecula, Calif
- Sequence (P06756 31-889 limits assumed): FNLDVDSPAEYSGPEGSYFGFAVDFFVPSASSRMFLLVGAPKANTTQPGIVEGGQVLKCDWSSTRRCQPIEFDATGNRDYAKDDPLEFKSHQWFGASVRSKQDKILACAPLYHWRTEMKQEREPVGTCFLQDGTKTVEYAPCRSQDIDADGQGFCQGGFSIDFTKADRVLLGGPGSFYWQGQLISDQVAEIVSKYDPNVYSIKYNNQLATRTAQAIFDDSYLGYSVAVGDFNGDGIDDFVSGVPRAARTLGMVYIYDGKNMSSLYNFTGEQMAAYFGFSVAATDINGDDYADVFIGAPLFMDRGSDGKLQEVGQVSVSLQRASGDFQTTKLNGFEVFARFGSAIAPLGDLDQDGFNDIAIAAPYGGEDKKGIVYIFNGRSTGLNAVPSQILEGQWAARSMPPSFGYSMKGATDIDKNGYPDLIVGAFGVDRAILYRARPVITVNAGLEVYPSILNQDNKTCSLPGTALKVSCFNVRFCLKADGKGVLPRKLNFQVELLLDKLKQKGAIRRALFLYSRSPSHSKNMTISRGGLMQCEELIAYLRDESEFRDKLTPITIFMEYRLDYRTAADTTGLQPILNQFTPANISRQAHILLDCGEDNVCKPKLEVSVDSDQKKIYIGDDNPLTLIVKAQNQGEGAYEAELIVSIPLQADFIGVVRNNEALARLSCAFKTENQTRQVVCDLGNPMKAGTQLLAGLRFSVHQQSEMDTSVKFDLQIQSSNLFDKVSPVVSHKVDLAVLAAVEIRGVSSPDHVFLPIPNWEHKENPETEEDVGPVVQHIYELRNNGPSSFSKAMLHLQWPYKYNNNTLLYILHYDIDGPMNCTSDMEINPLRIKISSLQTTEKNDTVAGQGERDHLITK
- Sequence (P06756 891-1048 partner limits assumed): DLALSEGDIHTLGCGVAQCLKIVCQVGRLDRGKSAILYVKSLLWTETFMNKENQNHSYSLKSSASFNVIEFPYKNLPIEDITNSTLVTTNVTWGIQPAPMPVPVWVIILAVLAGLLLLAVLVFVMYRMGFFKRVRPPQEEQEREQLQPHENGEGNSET
- Sequence (P05106 27-788): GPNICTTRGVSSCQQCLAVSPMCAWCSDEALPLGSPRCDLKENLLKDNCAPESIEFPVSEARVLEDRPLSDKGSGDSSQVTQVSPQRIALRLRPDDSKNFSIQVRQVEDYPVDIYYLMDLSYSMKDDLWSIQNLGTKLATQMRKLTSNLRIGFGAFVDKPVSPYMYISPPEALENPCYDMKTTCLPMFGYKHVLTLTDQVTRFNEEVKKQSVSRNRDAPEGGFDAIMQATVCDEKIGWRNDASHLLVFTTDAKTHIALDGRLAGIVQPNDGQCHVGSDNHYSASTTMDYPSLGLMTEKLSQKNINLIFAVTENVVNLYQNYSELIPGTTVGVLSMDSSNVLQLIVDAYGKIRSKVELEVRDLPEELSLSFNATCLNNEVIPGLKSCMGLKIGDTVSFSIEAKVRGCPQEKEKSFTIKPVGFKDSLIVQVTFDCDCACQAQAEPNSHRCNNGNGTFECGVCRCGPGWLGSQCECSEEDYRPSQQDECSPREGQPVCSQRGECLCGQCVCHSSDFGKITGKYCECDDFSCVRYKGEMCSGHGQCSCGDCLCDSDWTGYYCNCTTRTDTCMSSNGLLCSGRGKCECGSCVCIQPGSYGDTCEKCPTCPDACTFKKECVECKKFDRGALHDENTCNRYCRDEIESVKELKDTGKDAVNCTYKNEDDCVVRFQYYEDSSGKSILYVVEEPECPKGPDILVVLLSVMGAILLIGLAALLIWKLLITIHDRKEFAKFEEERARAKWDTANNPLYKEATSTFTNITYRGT
- protocol: In vitro solid phase purified αvβ3 binding assay (vitronectin/αvβ3)
- run_parameters: vitronectin binding to immobilized αvβ3; read-out: αvβ3 IC50
pIC50: −log10 of the molar value.
experimental_readout: pIC50

Below, each entry is followed by its recorded pIC50 result.
{"molecule": "C=CC(N)CCC(=O)N1CCC(C(=O)NC[C@H](NC(=O)OCc2ccccc2)C(=O)O)CC1 (stereo partly shown)", "pIC50": 5.41}
{"molecule": "COc1cc(OC)cc(C(CC(=O)O)NC(=O)C2CCN(C(=O)CCCNC3=NCCN3)CC2)c1 (stereo not shown)", "pIC50": 7.19}
{"molecule": "O=C(O)CC(NC(=O)C1CCN(C(=O)CCCNC2=NCCN2)CC1)c1ccc2c(c1)OCO2 (stereo not shown)", "pIC50": 7.64}
{"molecule": "CC(CNC1=NCCN1)C(=O)N1CCC(C(=O)NC[C@H](NC(=O)OCc2ccccc2)C(=O)O)CC1 (stereo partly shown)", "pIC50": 7.72}
{"molecule": "O=C(O)CC(NC(=O)C1CCN(C(=O)CCCNC2=NCCN2)CC1)c1cccnc1 (stereo not shown)", "pIC50": 7.49}
{"molecule": "CC(CNC1=NCCN1)CC(=O)N1CCC(C(=O)NC[C@H](NC(=O)OCc2ccccc2)C(=O)O)CC1 (stereo partly shown)", "pIC50": 7.14}

[I] O=C(NCCCC(=O)N1CCC(C(=O)NC[C@H](NC(=O)OCc2ccccc2)C(=O)O)CC1)NCc1ccccc1
[II] O=C(O)C[C@H](NC(=O)C1CCN(C(=O)CCCNC2=NCCN2)CC1)c1cccnc1
[III] O=C(N[C@@H](CNC(=O)C1CCN(C(=O)c2ccc(CNC3=NCCN3)cc2)CC1)C(=O)O)OCc1ccccc1
Highest pIC50 first, then in falling order down to the smallest. Write the labels in rank order as requested. II, I, III

[P] C[C@H](CC(=O)O)NC(=O)C1CCN(C(=O)CCCNC2=NCCN2)CC1
[Q] O=C(N[C@@H](CNC(=O)C1CCN(C(=O)CCONC2=NCCN2)CC1)C(=O)O)OCc1ccccc1
Which of the two items, P and Q , has the greater recorded pIC50? Answer by quoting the chosen item's label. Q

[I] O=C(O)CC(NC(=O)C1CCN(C(=O)CCONC2=NCCN2)CC1)c1ccc2c(c1)OCO2 (stereo not shown)
[II] O=C(O)CC(NC(=O)C1CCN(C(=O)C2CCNCC2)CC1)c1cnc2ccccc2c1 (stereo not shown)
Thinking about recorded pIC50 values, which is higher, I or II ? Reply briefly: the label of your chosen item. I
(I: 6.74, II: 4.52)

This collection of values is drawn from patent US7718673B2.
